Data credit: ChEMBL document CHEMBL1143706

Items are presented alongside their recorded EC50.
Target: Mu-type opioid receptor (Rattus norvegicus)
Sequence (P33535 whole entry): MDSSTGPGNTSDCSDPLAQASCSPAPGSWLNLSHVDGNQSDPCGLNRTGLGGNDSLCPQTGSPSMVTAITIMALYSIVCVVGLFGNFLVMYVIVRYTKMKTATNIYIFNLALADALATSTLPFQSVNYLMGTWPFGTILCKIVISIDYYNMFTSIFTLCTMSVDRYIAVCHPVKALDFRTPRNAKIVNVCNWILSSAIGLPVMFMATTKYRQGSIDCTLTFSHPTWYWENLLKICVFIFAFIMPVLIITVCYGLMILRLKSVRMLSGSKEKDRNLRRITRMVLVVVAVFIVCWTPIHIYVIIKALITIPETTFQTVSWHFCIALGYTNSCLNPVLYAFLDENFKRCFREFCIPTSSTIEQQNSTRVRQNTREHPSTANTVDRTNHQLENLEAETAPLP
Experiment: Agonist activity at rat mu opioid receptor expressed in HN9.10 cells assessed by [35S]GTP-gamma-S binding assay
Square brackets hold non-standard residues; d marks the D form. Peptide text beside a SMILES is read from it. * marks the point of attachment. OBzl(3,5-(CF3)2) = FC(F)(F)c1cc(CO*)cc(C(F)(F)F)c1
Write the answer as a number in nM, unit excluded.

The cases that follow already have their EC50 on record.
Given the compound CC(C)C[C@H](NC(=O)[C@@H]1CCCN1C(=O)[C@@H](Cc1ccccc1)NC(=O)[C@H](Cc1ccccc1)NC(=O)CNC(=O)[C@@H](C)NC(=O)[C@@H](N)Cc1ccc(O)cc1)C(=O)N[C@@H](Cc1c[nH]c2ccccc12)C(=O)OCc1cc(C(F)(F)F)cc(C(F)(F)F)c1 , what is its reported EC50?
350

Could you do the same for CC(C)C[C@H](NC(=O)[C@@H]1CCCN1C(=O)[C@H](CC(C)C)NC(=O)[C@H](Cc1ccccc1)NC(=O)CNC(=O)[C@@H](C)NC(=O)[C@@H](N)Cc1ccc(O)cc1)C(=O)N[C@@H](Cc1c[nH]c2ccccc12)C(=O)OCc1cc(C(F)(F)F)cc(C(F)(F)F)c1 , please?
33

Field entry: CC(C)C[C@H](NC(=O)[C@@H]1CCCN1C(=O)CNC(=O)[C@H](Cc1ccccc1)NC(=O)CNC(=O)[C@@H](C)NC(=O)[C@@H](N)Cc1ccc(O)cc1)C(=O)N[C@@H](Cc1c[nH]c2ccccc12)C(=O)OCc1cc(C(F)(F)F)cc(C(F)(F)F)c1 (H-Y[dA]GFGPLW-{OBzl(3,5-(CF3)2)})
42

Could you now consider this next compound?
Form field: reported EC50 of CC(C)C[C@H](NC(=O)[C@@H]1CCCN1C(=O)[C@H](Cc1ccccc1)NC(=O)[C@H](Cc1ccccc1)NC(=O)CNC(=O)[C@@H](C)NC(=O)[C@@H](N)Cc1ccc(O)cc1)C(=O)N[C@@H](Cc1c[nH]c2ccccc12)C(=O)OCc1cc(C(F)(F)F)cc(C(F)(F)F)c1
59
